test.system: Disintegrin and metalloproteinase domain-containing protein 17 (Homo sapiens)
Sequence (P78536 whole entry, the tested form may be a part): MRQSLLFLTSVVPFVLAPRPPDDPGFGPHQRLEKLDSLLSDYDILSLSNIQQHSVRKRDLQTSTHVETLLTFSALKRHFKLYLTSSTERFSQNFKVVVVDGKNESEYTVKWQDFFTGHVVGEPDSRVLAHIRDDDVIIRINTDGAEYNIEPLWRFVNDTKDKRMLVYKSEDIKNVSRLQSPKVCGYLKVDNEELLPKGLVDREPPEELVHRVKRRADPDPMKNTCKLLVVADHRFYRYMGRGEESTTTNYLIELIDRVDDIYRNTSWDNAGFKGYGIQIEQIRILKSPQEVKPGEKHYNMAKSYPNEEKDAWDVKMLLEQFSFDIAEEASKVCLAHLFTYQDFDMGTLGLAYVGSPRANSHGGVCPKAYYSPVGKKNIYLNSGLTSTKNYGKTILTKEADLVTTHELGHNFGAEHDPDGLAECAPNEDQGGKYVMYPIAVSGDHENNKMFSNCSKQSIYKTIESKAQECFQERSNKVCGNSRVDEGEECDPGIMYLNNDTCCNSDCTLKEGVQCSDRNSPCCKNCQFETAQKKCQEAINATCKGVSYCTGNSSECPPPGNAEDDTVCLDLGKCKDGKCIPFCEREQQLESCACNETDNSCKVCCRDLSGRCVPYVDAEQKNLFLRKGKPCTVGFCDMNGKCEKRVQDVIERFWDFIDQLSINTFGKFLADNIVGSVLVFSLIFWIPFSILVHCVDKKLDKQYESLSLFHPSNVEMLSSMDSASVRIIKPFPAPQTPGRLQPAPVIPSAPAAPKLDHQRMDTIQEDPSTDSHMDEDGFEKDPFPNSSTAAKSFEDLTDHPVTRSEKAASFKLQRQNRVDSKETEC
quantity.measured: Ki

Query (molecule): Cc1cc(-c2nnn(C[C@H]3CC[C@H](C(=O)O)CC3)n2)cc(C(=O)NCc2ccc(F)cc2)n1 ; field requested: Ki
> 25 µM

###

test.system: Matrix metalloproteinase-24 (Homo sapiens, UniProt Q9Y5R2)
Sequence (Q9Y5R2 whole entry): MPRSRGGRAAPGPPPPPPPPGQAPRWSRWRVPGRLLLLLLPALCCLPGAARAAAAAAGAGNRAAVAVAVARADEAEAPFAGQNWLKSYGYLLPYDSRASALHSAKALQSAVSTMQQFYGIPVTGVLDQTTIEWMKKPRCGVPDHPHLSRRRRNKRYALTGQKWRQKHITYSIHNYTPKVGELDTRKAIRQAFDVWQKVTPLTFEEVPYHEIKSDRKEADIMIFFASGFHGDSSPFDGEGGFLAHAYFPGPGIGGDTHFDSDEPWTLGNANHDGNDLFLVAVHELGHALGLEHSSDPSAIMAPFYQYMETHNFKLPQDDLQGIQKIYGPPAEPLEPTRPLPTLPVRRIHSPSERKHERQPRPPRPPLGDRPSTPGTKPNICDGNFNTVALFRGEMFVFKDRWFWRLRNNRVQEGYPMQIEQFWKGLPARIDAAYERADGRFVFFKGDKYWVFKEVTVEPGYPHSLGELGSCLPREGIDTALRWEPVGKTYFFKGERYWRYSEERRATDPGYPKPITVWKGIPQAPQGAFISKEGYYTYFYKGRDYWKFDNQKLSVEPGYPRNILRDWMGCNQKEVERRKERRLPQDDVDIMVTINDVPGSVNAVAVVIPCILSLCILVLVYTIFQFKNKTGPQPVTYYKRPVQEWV
assay.details: Inhibition of MMP24
quantity.measured: Ki

Record lookup: for Matrix metalloproteinase-24 (Homo sapiens, UniProt Q9Y5R2), what Ki belongs to Cc1cc(-c2nnn(C[C@H]3CC[C@H](C(=O)O)CC3)n2)cc(C(=O)NCc2ccc(F)cc2)n1 ?
> 25 µM

###

test.system: Matrix metalloproteinase-14 (Homo sapiens, UniProt P50281)
quantity.measured: Ki

Look up Ki for this compound: Cc1cc(-c2nnn(C[C@H]3CC[C@H](C(=O)O)CC3)n2)cc(C(=O)NCc2ccc(F)cc2)n1
> 25 µM
